# Test system: MV4-11 (MLL-AF4)
# METHOD_NOTES: LTP assay, CellTiterGlo, T4-T14 (Example 103), MV4-11
# Type: cell-based, human
# STUDY_CONDITIONS: Homo sapiens, MV4-11, 96 h, MV4-11 (MLL-AF4), T4 (Day 4); read-out: IC50 T4 (Day 4)
PROPERTY_LABEL: IC50

I'd like to know its IC50. The molecule in question is Cc1cn(-c2nccc3[nH]c(-c4ccc(NC(=O)Cc5cc(-c6cccnc6)n[nH]5)cc4)nc23)cn1 [Compound 31] > 5 µM

For Cc1nccc2[nH]c(-c3ccc(NC(=O)Cc4cc(-c5cccnc5)n[nH]4)cc3)nc12 [Compound 33] , what is its reported IC50? > 5 µM

Fill in: IC50 of Cc1ccc(-c2cc(CC(=O)Nc3ccc(-c4nc5c(N6CCOCC6)nccc5[nH]4)cc3)[nH]n2)cn1 [Compound 32] is ___ > 5 µM
